The origin of these recorded values is PubChem BioAssay (EPA / NIEHS).

- System tested: X-box-binding protein 1 (Homo sapiens)
- Assay comment: ATG_Xbp1_CIS: Attagene CIS-FACTORIAL HepG2 Assay for human X-box Binding Protein 1 (XBP1) (AID 2282972)
- Test conditions: HepG2 XBP1 cis-element reporter, Attagene multiplex; actives raise or lower the signal
The source made the active and inactive calls. How the source made its calls: active means hit-call score of the fitted dose curve at least 0.9, where 1 is the maximum; inactive means score below 0.9.
Please reply with one of these outcomes: active, inactive

substance_smiles=O=C/C=C/c1ccccc1 class=inactive
substance_smiles=CC(C)(c1ccccc1)c1ccc(O)c(C(C)(C)c2ccccc2)c1 class=active

Now for another entry.
Hi, do you know how `CCOC(=O)/C=C(C)/C=C/C[C@@H](C)CCCC(C)C` came out in this test?
inactive
